These entries and their values trace back to PubChem BioAssay (Tox21).

- targetEntity: Estrogen receptor (Homo sapiens) (UniProt P03372)
- Sequence (P03372 whole entry, looked up): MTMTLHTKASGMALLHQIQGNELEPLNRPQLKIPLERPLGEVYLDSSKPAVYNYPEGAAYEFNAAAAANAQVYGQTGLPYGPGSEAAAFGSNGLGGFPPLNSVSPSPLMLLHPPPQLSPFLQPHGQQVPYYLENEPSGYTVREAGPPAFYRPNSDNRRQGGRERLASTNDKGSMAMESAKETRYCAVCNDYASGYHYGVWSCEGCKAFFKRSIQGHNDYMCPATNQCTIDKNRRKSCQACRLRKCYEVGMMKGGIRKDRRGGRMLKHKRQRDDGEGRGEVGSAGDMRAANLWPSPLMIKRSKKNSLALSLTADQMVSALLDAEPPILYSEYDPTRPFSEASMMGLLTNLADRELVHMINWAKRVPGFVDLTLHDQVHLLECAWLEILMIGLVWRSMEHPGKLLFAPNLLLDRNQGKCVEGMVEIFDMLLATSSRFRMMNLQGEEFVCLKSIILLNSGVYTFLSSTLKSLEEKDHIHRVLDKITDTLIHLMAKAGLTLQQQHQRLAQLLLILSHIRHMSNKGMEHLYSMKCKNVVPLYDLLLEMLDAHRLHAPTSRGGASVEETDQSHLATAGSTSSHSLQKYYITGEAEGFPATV
- assayOverview: qHTS assay to identify small molecule agonists of the estrogen receptor alpha (ER-alpha) signaling pathway using the BG1 cell line (AID 743079); also: nearly all actives have a fitted effect of over 20% in size
- conditions: BG1Luc4E2 cells, ERE-luciferase agonist, 22 h; series mostly up to 70.3 µM
Records with an inconclusive call do not appear. Calls of active or inactive are those of the source. Calls follow the shape of the dose curve; as a rule, active = well fitted activation curve with a large enough effect in the repeat runs; inconclusive = weak or mixed curves, or effect the other way; inactive = no such curve, though single readings can be large or run the other way.
Reply using exactly one outcome from True = active, False = inactive

A selection of reference data follows.
{"columns": ["molecule", "cat"],
 "data": [
  ["CN(C)CCN(C)CCO", "False"],
  ["CCCCCc1cccc(=O)o1", "False"],
  ["O=C(NCN1CCOCC1)c1cnccn1", "False"],
  ["CC1=C(O)C(=O)C(C)O1 (stereo not drawn)", "False"],
  ["CC(=O)OC1CCCCC1C(C)(C)C (stereo not drawn)", "False"]
]}

stdin: Called result for CCC[C@@H]1C[C@@H](C(=O)N[C@@H]([C@H]2O[C@H](SC)[C@H](O)[C@@H](O)[C@H]2O)[C@@H](C)O)N(C)C1
stdout: False

stdin: Look up the recorded call for CCCCCCCCCCOC(C)=O in this test.
stdout: True

stdin: Could you check what this test reported for CC1(C)Cc2cccc(N)c2O1 ?
stdout: False
